- Test system: antibodies in sera from SARS patients (sera 1a, 1b, 2, 6, 37, 62, London, SARS-yellow, SARS-green)
- Assay type: binding, human
- Parameters: unit not given here
Reported metric: Binding of serum 6 to looped/cyclic peptide (PEPSCAN-ELISA)

[[record]]
sequence = "FLQCINACRIIMRCW"
value_measured = 0.7

[[record]]
sequence = "LQCINACRIIMRCWL"
value_measured = 1.4

[[record]]
sequence = "LYLYALIYFLQCINA"
value_measured = 0.3

[[record]]
sequence = "TATIPLQASLPFGWL"
value_measured = 0.5

[[record]]
sequence = "WQLALYKGFQFICNL"
value_measured = 1.3

[[record]]
sequence = "FLYLYALIYFLQCIN"
value_measured = 0.2

[[record]]
sequence = "QSATKIIALNKRWQL"
value_measured = 0.6


###

- Test system: control sera (pooled serum of ten healthy LUMC hospital workers; commercial negative donor pooled serum from the Dutch bloodbank)
- Assay type: binding, human
- Parameters: unit not given here
Binding of Control serum LUMC to looped peptides: recorded values
Reported metric: Binding of Control serum LUMC to looped peptides

[[record]]
sequence = "FYYLGTGPEASLPYG"
value_measured = 0.7

[[record]]
sequence = "AMDPIYDEPTTTTSV"
value_measured = 0.7

[[record]]
sequence = "THFAFACADGTRHTY"
value_measured = 0.7


###

- Tested on: antibodies in sera from SARS patients (sera 1a, 1b, 2, 6, 37, 62, London, SARS-yellow, SARS-green)
- Format: binding, human
Binding of serum 1a to linear peptides of protein M of SARS-CoV Urbani: recorded values
Reported metric: Binding of serum 1a to linear peptides of protein M of SARS-CoV Urbani

[[record]]
sequence = "LMWLSYFVASFRLFA"
value_measured = 0.6

[[record]]
sequence = "ESELVIGAVIIRGHL"
value_measured = 0.8

[[record]]
sequence = "RIGNYKLNTDHAGSN"
value_measured = 0.7

[[record]]
sequence = "CFVLAAVYRINWVTG"
value_measured = 0.8

[[record]]
sequence = "YNRYRIGNYKLNTDH"
value_measured = 0.7

[[record]]
sequence = "VASFRLFARTRSMWS"
value_measured = 0.7

[[record]]
sequence = "WPVTLACFVLAAVYR"
value_measured = 0.7

[[record]]
sequence = "IVTRPLMESELVIGA"
value_measured = 0.8

[[record]]
sequence = "MESELVIGAVIIRGH"
value_measured = 0.8

[[record]]
sequence = "DIKDLPKEITVATSR"
value_measured = 0.7

[[record]]
sequence = "LKQLLEQWNLVIGFL"
value_measured = 0.7


###

- Tested on: antibodies in sera from SARS patients (sera 1a, 1b, 2, 6, 37, 62, London, SARS-yellow, SARS-green)
- Type: binding, human
Reported metric: Binding of serum London to linear peptides of protein N of SARS-CoV Urbani

[[record]]
sequence = "PEASLPYGANKEGIV"
value_measured = 0.5

[[record]]
sequence = "DQIGYYRRATRRVRG"
value_measured = 0.5

[[record]]
sequence = "TNSGPDDQIGYYRRA"
value_measured = 0.5

[[record]]
sequence = "MSDNGPQSNQRSAPR"
value_measured = 0.5

[[record]]
sequence = "FGMSRIGMEVTPSGT"
value_measured = 0.6

[[record]]
sequence = "QRQKKQPTVTLLPAA"
value_measured = 0.6

[[record]]
sequence = "TPKDHIGTRNPNNNA"
value_measured = 0.5

[[record]]
sequence = "KHWPQIAQFAPSASA"
value_measured = 0.7

[[record]]
sequence = "GPEASLPYGANKEGI"
value_measured = 0.6

[[record]]
sequence = "VPINTNSGPDDQIGY"
value_measured = 0.4

[[record]]
sequence = "QSNQRSAPRITFGGP"
value_measured = 0.4

[[record]]
sequence = "PQIAQFAPSASAFFG"
value_measured = 0.5

[[record]]
sequence = "HGKEELRFPRGQGVP"
value_measured = 0.5

[[record]]
sequence = "KKTDEAQPLPQRQKK"
value_measured = 1.7

[[record]]
sequence = "SWFTALTQHGKEELR"
value_measured = 0.5

[[record]]
sequence = "PAADMDDFSRQLQNS"
value_measured = 0.6

